MIC reference
# Test system: Salmonella typhimurium
# test: Minimum inhibitory concentration (MIC)
# Type: cell-based
# experimental.conditions: Salmonella enterica; Salmonella typhimurium; read-out: Minimum inhibitory concentration

| structure.as.smiles | MIC (µg/mL) |
| --- | --- |
| C[C@@H]([C@@H](c1ccccc1)n1cc(COC(=O)C=Cc2ccccc2)nn1)N1CCCC1 | 500 |
| C[C@@H]([C@@H](c1ccccc1)n1cc(COC(=O)c2ccccc2Cl)nn1)N1CCCC1 | 250 |
| C[C@@H]([C@@H](c1ccccc1)n1cc(COC(=O)c2ccccc2)nn1)N1CCCC1 | 500 |
| C[C@@H]([C@@H](c1ccccc1)n1cc(CO)nn1)N1CCCC1 | 250 |
